Origin of measurements: patent US20250163162A1

# targetDesc: T1, IL10Rα/IL2Rγ receptor (human) (UniProt Q13651)
# T1 sequence (looked up) 1: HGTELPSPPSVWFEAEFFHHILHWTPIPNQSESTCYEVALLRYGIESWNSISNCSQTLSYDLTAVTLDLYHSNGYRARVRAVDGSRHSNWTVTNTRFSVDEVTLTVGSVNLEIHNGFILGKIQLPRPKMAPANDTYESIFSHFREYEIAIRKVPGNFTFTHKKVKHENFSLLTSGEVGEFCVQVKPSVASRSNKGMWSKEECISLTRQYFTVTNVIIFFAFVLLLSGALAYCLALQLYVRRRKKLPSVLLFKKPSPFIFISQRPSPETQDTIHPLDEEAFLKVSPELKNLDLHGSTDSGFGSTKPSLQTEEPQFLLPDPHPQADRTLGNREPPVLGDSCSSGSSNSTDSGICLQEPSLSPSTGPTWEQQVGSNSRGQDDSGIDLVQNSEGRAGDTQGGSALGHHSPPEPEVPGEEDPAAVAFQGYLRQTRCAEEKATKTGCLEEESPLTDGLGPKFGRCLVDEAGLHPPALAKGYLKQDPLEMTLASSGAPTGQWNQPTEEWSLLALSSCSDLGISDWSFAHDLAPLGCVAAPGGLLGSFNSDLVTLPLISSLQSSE
# T1 sequence (looked up) 2: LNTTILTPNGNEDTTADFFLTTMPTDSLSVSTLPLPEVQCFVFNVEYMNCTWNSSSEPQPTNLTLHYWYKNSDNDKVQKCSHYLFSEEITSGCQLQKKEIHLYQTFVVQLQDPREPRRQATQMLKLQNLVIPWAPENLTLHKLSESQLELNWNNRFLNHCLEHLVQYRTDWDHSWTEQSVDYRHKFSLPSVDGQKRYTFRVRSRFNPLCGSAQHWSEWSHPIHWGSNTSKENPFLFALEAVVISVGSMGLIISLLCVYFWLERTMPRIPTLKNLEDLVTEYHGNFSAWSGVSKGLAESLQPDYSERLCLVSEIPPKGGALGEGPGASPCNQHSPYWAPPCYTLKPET
# assayNotes: cell-based or functional assay
Overview of recorded IFNγ secretion, CD8 T cells, at 100 µM for various binders
The response must be a number in pg/mL with no trailing unit.

hIL10Ra_VHH14 - hIL2Rg_VHH19, No linker, tag his (bispecific antibody, not shown: small tags and cut ends) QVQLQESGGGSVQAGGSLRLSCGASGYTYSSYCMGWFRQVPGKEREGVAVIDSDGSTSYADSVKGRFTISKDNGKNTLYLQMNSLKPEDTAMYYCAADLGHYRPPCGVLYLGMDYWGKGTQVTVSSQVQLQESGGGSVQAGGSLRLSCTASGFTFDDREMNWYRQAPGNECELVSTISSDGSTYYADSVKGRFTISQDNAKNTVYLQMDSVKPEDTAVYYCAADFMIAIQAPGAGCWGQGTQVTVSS	134000

Let us move to another entry and its IFNγ secretion, CD8 T cells, at 100 µM.
Asked: Requested field: IFNγ secretion, CD8 T cells, at 100 µM. Item: hIL10Ra_VHH14 - hIL2Rg_VHH19, linker GGGS, tag Fc (bispecific antibody, not shown: a dimerising Fc or GST) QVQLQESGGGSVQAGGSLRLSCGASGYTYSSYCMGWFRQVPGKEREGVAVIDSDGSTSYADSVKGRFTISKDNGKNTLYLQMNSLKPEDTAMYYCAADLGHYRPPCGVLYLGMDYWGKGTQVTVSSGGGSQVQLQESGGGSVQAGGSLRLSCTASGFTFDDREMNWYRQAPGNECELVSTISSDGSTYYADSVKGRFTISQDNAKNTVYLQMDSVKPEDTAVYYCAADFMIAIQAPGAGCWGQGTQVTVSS
Given back: 148000
